A collection of compounds and their measured AUC(0-t)
- method.notes: Brain and plasma concentrations in mice after intraperitoneal administration (LC-MS-MS), non-compartmental analysis
- Assay type: in vivo
- measurement.conditions: male, Swiss-Webster, mouse, ip; plasma NCA, 10 mg/kg i.p.
Reply with just the number (in ng·h/mL).

Solved entries:
// lookup AUC(0-t) for "N=C(N)Nc1ccc2[nH]c3c(c2c1)C[C@@]1(O)[C@H]2Cc4ccc(O)c5c4[C@@]1(CCN2CC1CC1)[C@H]3O5" 9450

Try "CC(C)[C@@H](CN1CC[C@@](C)(c2cccc(O)c2)[C@@H](C)C1)NC(=O)[C@H]1Cc2ccc(O)cc2CN1" next. 866

Next, consider the following compound.
Which AUC(0-t) value is on record for "Oc1ccc2c3c1O[C@H]1c4[nH]c5c(c4C[C@@]4(O)[C@@H](C2)N(CC2CC2)CC[C@]314)C[C@@]1(O)[C@H]2Cc3ccc(O)c4c3[C@@]1(CCN2CC1CC1)[C@H]5O4" ? 5910

====

- method.notes: Brain and plasma concentrations in mice after intraperitoneal administration (LC-MS-MS), non-compartmental analysis
- Type: in vivo
- measurement.conditions: male, Swiss-Webster (Crl:CFW(SW)), mouse, brain, ip, 10 mg/kg, 4 h, 10 mg/kg i.p., individual mice; read-out: [drug],brain (free base equivalent)
- Description: Doses are reported by weight of the specified salt. […] Body mass was measured to ±0.1 g. Mice were sacrificed by cervical dislocation, then decapitated for collection of brain and blood samples. […] Drug concentrations (ng mL^-1) refer to the free base, and were measured by liquid chromatography-tandem mass spectrometry (LC-MS-MS) as described previously. […] Compounds were detected in positive ion mode, tuned to the mass transition with the largest intensity. […]
observation.type: concentration at 4 h (ng/g)
# number only, unit ng/g dropped from output

Which measured concentration at 4 h value corresponds to "CC(C)[C@@H](CN1CC[C@@](C)(c2cccc(O)c2)[C@@H](C)C1)NC(=O)[C@H]1Cc2ccc(O)cc2CN1" ? 60.6

====

concentration at 1 h by entry:
- method.notes: Brain and plasma concentrations in mice after intraperitoneal administration (LC-MS-MS), non-compartmental analysis
- Assay type: in vivo
- measurement.conditions: male, Swiss-Webster, mouse, plasma, intraperitoneal, 10 mg/kg, 1 h, 10 mg/kg; read-out: Conc (plasma, NCA input)
Respond numerically; units are ng/mL and should not be typed.

Below are worked cases with known answers.
Entry "N=C(N)Nc1ccc2[nH]c3c(c2c1)C[C@@]1(O)[C@H]2Cc4ccc(O)c5c4[C@@]1(CCN2CC1CC1)[C@H]3O5" has what concentration at 1 h? 3020

Next molecule up: "CC(C)[C@@H](CN1CC[C@@](C)(c2cccc(O)c2)[C@@H](C)C1)NC(=O)[C@H]1Cc2ccc(O)cc2CN1" 154

New cases:
// query concentration at 1 h value for entry "Oc1ccc2c3c1O[C@H]1c4[nH]c5c(c4C[C@@]4(O)[C@@H](C2)N(CC2CC2)CC[C@]314)C[C@@]1(O)[C@H]2Cc3ccc(O)c4c3[C@@]1(CCN2CC1CC1)[C@H]5O4" 1790

====

- method.notes: Brain and plasma concentrations in mice after intraperitoneal administration (LC-MS-MS), non-compartmental analysis
- Assay type: in vivo
- measurement.conditions: male, Swiss-Webster, mouse, plasma, ip, 10 mg/kg, plasma; 10 mg kg^-1 i.p., non-compartmental analysis; read-out: CL/F (converted)
List of CL/F values.
I only need the number, in mL/min/kg, no unit after it.

Request the reported CL/F associated with Oc1ccc2c3c1O[C@H]1c4[nH]c5c(c4C[C@@]4(O)[C@@H](C2)N(CC2CC2)CC[C@]314)C[C@@]1(O)[C@H]2Cc3ccc(O)c4c3[C@@]1(CCN2CC1CC1)[C@H]5O4 [nor-BNI, norbinaltorphimine] 28.3

Further, for N=C(N)Nc1ccc2[nH]c3c(c2c1)C[C@@]1(O)[C@H]2Cc4ccc(O)c5c4[C@@]1(CCN2CC1CC1)[C@H]3O5 [GNTI, 5’-guanidinonaltrindole] ? 16.7

# ---- query molecule ----
Reported CL/F, molecule CC(C)[C@@H](CN1CC[C@@](C)(c2cccc(O)c2)[C@@H](C)C1)NC(=O)[C@H]1Cc2ccc(O)cc2CN1 [JDTic] : ____ 18.3
